conditions: in cyclohexanone, 282.93 K
PROPERTY NAME: solubility (mole fraction)
In your answer, state the number alone without any accompanying words.

Param item = CN(C)CCC=C1c2ccccc2CCc2ccccc21.Cl ; retrieve measured solubility (mole fraction).
0.00512

###

details: in n-butanol, 298.15 K
PROPERTY NAME: solubility (mole fraction)
Provide a numeric answer; units are not to be included.

Which solubility (mole fraction) is reported for this molecule? CN(C)CCC=C1c2ccccc2CCc2ccccc21.Cl
0.042

###

conditions: in DMF, 308.17 K
PROPERTY NAME: solubility (mole fraction)
// keep it numeric: no unit symbol after the value

Find the recorded solubility (mole fraction) belonging to CN(C)CCC=C1c2ccccc2CCc2ccccc21.Cl and report it.
0.047
